TGI reference
- System: MDA-MB-435
- ASSAY: NCI tumour cell line growth inhibition, 48 h

MOLECULE: CC1CCCC(C#N)(NOC2=NCCN2)C1 (stereo not given)
TGI: > 100 µM
--
MOLECULE: O=C1C=CC(=O)c2c1ccc1c3ccccc3n(Cc3ccccc3)c21
TGI: > 56.8 µM
--
MOLECULE: CC(=O)OCC1OC(SC2=NC(=O)CS2)C(OC(C)=O)C(OC(C)=O)C1OC(C)=O (stereo not given)
TGI: > 100 µM
--
MOLECULE: CCOC(=O)c1cc2c3c(c(C(C)=O)c(OC)c2[nH]1)N(C(=O)CC)CC3
TGI: 50.3 µM
--
MOLECULE: O=[N+]([O-])c1ccc(N2N=C(c3c(O)ccc4ccccc34)CC2c2ccc(Cl)cc2)c([N+](=O)[O-])c1 (stereo not given)
TGI: > 100 µM
--
MOLECULE: CCN1CCN(c2cc(C(=O)Nc3cccc(Nc4ccc5c(OC)cccc5n4)c3)cc(C(F)(F)F)c2)CC1
TGI: 4.93 µM
--
MOLECULE: N#C/C(=C/N1CCN(C(=O)c2ccco2)C1=S)C(=O)Nc1ccc(Cl)cc1
TGI: > 50 µM
--
MOLECULE: O=C1C=CC(=O)c2c(O)c(N3CCOCC3)c(Cl)c(O)c21
TGI: 0.406 µM
--
MOLECULE: O=Nc1c(-c2c(O)[nH]c3ccc(I)cc23)[nH]c2ccccc12
TGI: > 100 µM
--
MOLECULE: C=C(CN(CC)CC)C1(c2ccccc2)CC2(CCCC2)C(=O)O1 (stereo not given)
TGI: > 100 µM
